Test system: A498
Assay: Growth inhibition of human A498 cells after 48 hrs by sulforhodamine B assay
Type: functional
Details: A498, 48 h
property-name: GI50 (µM)
Answer in µM, number only, no unit symbol.

>  <smiles-representation>
CC(NC(=O)Nc1nc2ccccc2s1)(C(F)(F)F)C(F)(F)F

>  <tested-system>
A498

>  <GI50 (µM)>
100

$$$$

`CCC(NC(=O)Nc1cc(Cl)ccc1Cl)(C(F)(F)F)C(F)(F)F` yielded GI50 of 4.17

`O=c1[nH]cc(F)c(=O)[nH]1` yielded GI50 of 0.398

----------
Listing of recorded GI50 by entry.
Assay: Growth inhibition of human breast cancer cell after 48 hrs by sulforhodamine B assay
Type: functional
Conditions: Cancer cell lines
Answer in µM, number only, no unit symbol.

The examples below pair each entry with its known result.
>  <molecule>
CCC(NC(=O)Nc1nc2ccccc2s1)(C(F)(F)F)C(F)(F)F

>  <unit-tag>
µM

>  <result>
18.2

$$$$
>  <molecule>
CC(NC(=O)Nc1cc(Cl)ccc1Cl)(C(F)(F)F)C(F)(F)F

>  <unit-tag>
µM

>  <result>
61.7

$$$$
>  <molecule>
CCC(NC(=O)Nc1cc(Cl)ccc1Cl)(C(F)(F)F)C(F)(F)F

>  <unit-tag>
µM

>  <result>
5.5

$$$$
>  <molecule>
O=c1[nH]cc(F)c(=O)[nH]1 [FLUOROURACIL]

>  <unit-tag>
µM

>  <result>
1.38

$$$$

Then this molecule:
`CC(NC(=O)Nc1nc2ccccc2s1)(C(F)(F)F)C(F)(F)F` yielded GI50 of 50.1
